Biological target: BoNT/A HC, recombinant binding domain (C-terminal domain of the heavy chain) of botulinum neurotoxin type A (Clostridium botulinum, UniProt P0DPI0 860-1296)
Assay: SPR BIAcore, Hc on chip, scFv in flow
Measured Endpoint: Kd (nM)
Use nM as the unit, but write only the number.

# lookup: Kd of scFv C39 (scFv) scFv: QVQLQESGGGSVKPGGSLKLSCAASGFTFSDYYMSWVRQTPEKRLEWVATISDGGSYTYYPDSVKGRFTISRDNAKNNLYLQMSSLKSEDTAIYYCVRYRYDEGLDYWGQGTTVTVSSGGGGSGGGGSGGGGSDIELTQSPASLAVSLGRRATISCRASESVDSYGHSFMHWYQQKPGQPPKLLIYLASNLESGVPARFSGSGSRTDFTLTIDPVEADDAATYYCQQNNEDPYTFGGGTKLEIKR
2.3

Next: scFv 1F3 (scFv) scFv: EVQLQQSGARLVKPGASVKLSCKASGYTFTSFWMHWVKQRPGRGLEWIGRLDPNSGETKYNEKFKSKATLTVDKPSSTAYMELSSLTSEDSAVYYCAREAYGYWNFDVWGTGTTVTVSSGGGGSGGGGSGGGGSDIELTQSPASMSASPGEKVTMTCRATSSVSSSYLHWYQQKSGASPKLWIYSASNLASGVPSRFSGSGSGTSYLSTISSVEAEDAATYYCQQYIGYPYTFGGGTKLEIKR
12

Could you do the same for scFv C25 (scFv) scFv: QVQLQESGGGLVKPGGSLKLSCAASGFTFSDYYMYWVRQTPEKRLEWVATISDGGSYTYYPDSVKGRFTISRDNAKNNLYLQMSSLKSEDTAMYYCSRYRYDDAMDYWGQGTTVTVSSGGGGSGGGGSGGGGSDIELTQSPASLAVSLGQRATISCRASESVDSYGHSFMQWYQQKPGQPPKLLIYRASNLEPGIPARFSGSGSGTDFTLTINPVEADDVATYYCQQSNEDPFTFGSGTKLEIKR , please?
1.1

Again, but for scFv S25 (scFv) scFv: QVKLQQSGAELVRPGASVKLSCKASGYSLTSYWMNWVKQRPQGGLEWIGNIHPSDSDTRFNQKFEDKATLTVDTSSSTAYMQLSSPTSEDSAVYYCARGLYNGFWYFDVWGQGTTVTVSSGGGGSGGGGSGGGGSDIELTQSPALMAASPGEKVIITCSVSSSISSSNLHWYQQKSGTSPKPWIYGTSNLASQVPVRFSGSGSGTSYSLTISSMEAEDAATYYCQQWSSYPLTFGAGTKLEIKR
73
